Test: Evaluation of pharmacokinetic activity in male SD rats (iv and oral)
Type: in vivo
Details: rat, plasma, po 5 mg/kg vs iv 1 or 2 mg/kg
measured quantity: bioavailability (%)

CC(C)(C)c1cc(NC(=O)Nc2ccc(C#Cc3ccc(OCCCN4CCOCC4)cc3F)cc2)no1 ... 69.3

(I) CC(C)(C)c1cc(NC(=O)Nc2ccc(C#Cc3cnc4c(OCCN5CCOCC5)ccnn34)cc2)no1
(II) CC(C)(C)c1cc(NC(=O)Nc2ccc(C#Cc3ccc(OCCN4C[C@@H]5OCCO[C@@H]5C4)cc3)cc2)no1
Inquiry: Hi, I'm comparing I with II and wondering which one has the bigger number for bioavailability. Any idea? Respond with the label that goes with your answer.
Reply text: I
